molecular target: recombinant human PKM2 (Homo sapiens); construct: His (N); purchased R&D Systems; assay: Human PKM2 activation assay (Kinase-Glo Plus luminescent detection of generated ATP); assay type: biochemical; conditions: percentage activation normalised to DMSO vehicle (LOW) and 5 μM TEPP-46 (HIGH); read-out: hPKM2 Emax
This listing pairs molecules with measured Emax.
Kindly format the answer as number then unit.

>>> measurement("COc1ccc(Cn2ncc3cc(S(=O)(=O)c4ccc(OC(F)F)nc4)ccc3c2=O)cn1")
"107%"
>>> measurement("COc1ccc(Cn2ncc3cc(S(=O)(=O)c4cnc(C(F)F)s4)ccc3c2=O)cn1")
"67.2%"
>>> measurement("Cc1cc(Cn2ncc3cc(S(=O)(=O)c4cn[nH]c4)ccc3c2=O)nn1C")
"107%"
>>> measurement("COc1ccc(Cn2ncc3cc([S@@](=N)(=O)c4ccccc4)ccc3c2=O)cn1 (single isomer, unassigned)")
"77.3%"
>>> measurement("COc1ccc(S(=O)(=O)c2ccc3c(=O)n(Cc4ccn(CCO)n4)ncc3c2)cn1")
"98.4%"

Enquiry: So what does the record say about Emax for CC(C)n1ccc(Cn2ncc3cc(S(=O)(=O)c4ccccc4)ccc3c2=O)n1 ?
Return: 116%

Enquiry: Please do the same for O=c1c2ccc(S(=O)(=O)c3cnn(CC(F)(F)F)c3)cc2cnn1Cc1cc[nH]n1 as well.
Return: 93.2%

Enquiry: Please do the same for COc1ccc(S(=O)(=O)c2ccc3c(=O)n(Cc4cc(F)cnc4O)ncc3c2)cc1 as well.
Return: 70.8%

Enquiry: Please do the same for Cc1onc(C(N)=O)c1Cn1ncc2cc(S(=O)(=O)c3ccccc3)ccc2c1=O as well.
Return: 71.3%

Enquiry: Please do the same for O=c1c2ccc(S(=O)(=O)c3cc4c(cn3)OCC4)cc2cnn1Cc1cc[nH]n1 as well.
Return: 108%

Enquiry: Please do the same for Cn1cc(S(=O)(=O)c2ccc3c(=O)n(Cc4cc[nH]n4)ncc3c2)cn1 as well.
Return: 107%

Enquiry: Please do the same for COc1ccc(S(=O)(=O)c2ccc3c(=O)n(Cc4ccn(C5CC5)n4)ncc3c2)cc1 as well.
Return: 129%

Enquiry: Please do the same for COc1ccc(S(=O)(=O)c2ccc3c(=O)n(Cc4n[nH]c5ccccc45)ncc3c2)cc1 as well.
Return: 85.8%

* * *

Target: recombinant human PKLR (Homo sapiens, UniProt P30613)
Construct: His (N); purchased R&D Systems
Sequence (P30613 whole entry): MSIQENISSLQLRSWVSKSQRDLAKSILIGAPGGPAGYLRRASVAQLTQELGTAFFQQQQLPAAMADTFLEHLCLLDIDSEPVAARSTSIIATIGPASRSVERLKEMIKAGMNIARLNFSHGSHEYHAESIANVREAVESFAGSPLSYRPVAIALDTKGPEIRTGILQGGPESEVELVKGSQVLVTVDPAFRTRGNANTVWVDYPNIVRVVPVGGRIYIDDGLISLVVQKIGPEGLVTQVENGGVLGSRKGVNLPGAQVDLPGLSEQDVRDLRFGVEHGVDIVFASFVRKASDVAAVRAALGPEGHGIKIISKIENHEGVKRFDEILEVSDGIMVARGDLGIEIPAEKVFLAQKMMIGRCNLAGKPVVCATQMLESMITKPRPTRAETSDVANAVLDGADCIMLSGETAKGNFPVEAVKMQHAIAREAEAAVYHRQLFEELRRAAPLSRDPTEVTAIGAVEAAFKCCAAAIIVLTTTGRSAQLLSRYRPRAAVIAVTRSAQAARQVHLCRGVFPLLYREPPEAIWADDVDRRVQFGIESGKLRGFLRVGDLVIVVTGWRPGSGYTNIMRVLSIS
Test: Human PKLR activation assay (Kinase-Glo Plus luminescent detection of generated ATP)
Type: biochemical
Conditions: activation of recombinant human PKLR; 4-parameter logistic fit; read-out: hPKLR EC50
Experimental: Compound activation of recombinant human PKLR pyruvate kinase activity was determined by biochemical assay. […] The Kinase-Glo® Plus luminescence assay was from Promega. […] After 60 minutes' incubation on an orbital shaker (300 rpm, 26° C.), enzyme activity was quantified by the luminescent detection of generated ATP. […] Percentage activation was calculated by normalising […] signals to plate LOW (DMSO vehicle) and HIGH (5 μM TEPP-46) controls. […]
This listing pairs molecules with measured EC50.

Use these answered entries as a reference point.
>>> measurement("O=c1c2cc(NCCO)c(S(=O)(=O)c3ccccc3)cc2cnn1Cc1ccn(C2CC2)n1")
"13.5 nM"
>>> measurement("O=c1c2ccc(S(=O)(=O)c3cnn(CCO)c3)cc2cnn1Cc1ccc2c(n1)CCO2")
"6.58 nM"
>>> measurement("Cn1ccc(Cn2ncc3cc(S(=O)(=O)c4ccccc4)c(NCCO)cc3c2=O)n1")
"27.4 nM"

Enquiry: So what does the record say about EC50 for Cc1nc(S(=O)(=O)c2ccc3c(=O)n(Cc4cc[nH]n4)ncc3c2)cs1 ?
Return: 14.8 nM

Enquiry: Please do the same for Cn1cc(S(=O)(=O)c2ccc3c(=O)n(Cc4cccc(C5CC5)n4)ncc3c2)cn1 as well.
Return: 19.5 nM

Enquiry: Please do the same for O=c1c2ccc(S(=O)(=O)c3ccccc3)cc2cnn1Cc1cc[nH]n1 as well.
Return: 17.1 nM

Enquiry: Please do the same for O=c1c2ccc(S(=O)(=O)c3cc4c(cn3)OCC4)cc2cnn1Cc1cc[nH]n1 as well.
Return: 15.3 nM

Enquiry: Please do the same for O=c1c2ccc(S(=O)(=O)c3ccccc3)cc2cnn1Cc1ccn(C2CC2)n1 as well.
Return: 14 nM

* * *

biological target: recombinant human PKM2 (Homo sapiens, UniProt P14618); construct: His (N); purchased R&D Systems; assay: Human PKM2 activation assay (Kinase-Glo Plus luminescent detection of generated ATP); type: biochemical; conditions: percentage activation normalised to DMSO vehicle (LOW) and 5 μM TEPP-46 (HIGH); read-out: hPKM2 Emax
Sequence (P14618 2-531 limits assumed): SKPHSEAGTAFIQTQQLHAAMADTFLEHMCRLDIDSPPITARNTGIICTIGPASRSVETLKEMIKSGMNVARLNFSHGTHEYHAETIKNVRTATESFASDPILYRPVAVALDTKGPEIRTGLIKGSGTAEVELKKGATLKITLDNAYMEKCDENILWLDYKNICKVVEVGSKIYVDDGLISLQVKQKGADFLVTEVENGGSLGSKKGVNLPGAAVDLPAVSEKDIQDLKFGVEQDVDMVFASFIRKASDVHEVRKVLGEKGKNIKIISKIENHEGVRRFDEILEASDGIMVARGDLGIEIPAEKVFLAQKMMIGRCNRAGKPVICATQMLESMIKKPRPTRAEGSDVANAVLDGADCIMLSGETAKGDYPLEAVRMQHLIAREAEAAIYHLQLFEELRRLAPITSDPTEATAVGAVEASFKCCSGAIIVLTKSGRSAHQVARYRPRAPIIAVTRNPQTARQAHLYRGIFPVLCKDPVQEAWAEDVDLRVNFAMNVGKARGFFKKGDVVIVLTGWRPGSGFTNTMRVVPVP
MEASURED PARAMETER: Emax
Kindly format the answer as number then unit.

Use these answered entries as a reference point.
>>> measurement("COc1ccc(F)c(Cn2ncc3cc(S(=O)(=O)c4cc[nH]n4)ccc3c2=O)n1")
"98.5%"
>>> measurement("Cn1ncc2cc(Cn3ncc4cc(S(=O)(=O)c5ccccc5)ccc4c3=O)ccc21")
"70%"
>>> measurement("Cc1nc(Cn2ncc3cc(S(=O)(=O)c4cn[nH]c4)ccc3c2=O)ccc1F")
"116%"

Enquiry: So what does the record say about Emax for Cn1cc(S(=O)(=O)c2cnc3c(=O)n(Cc4cc[nH]n4)ncc3c2)cn1 ?
Return: 83.5%

Enquiry: Please do the same for Cn1ccc(S(=O)(=O)c2ccc3c(=O)n(Cc4cccc(N)c4)ncc3c2)n1 as well.
Return: 106%

Enquiry: Please do the same for CC(O)c1nc(S(=O)(=O)c2ccc3c(=O)n(Cc4ccc5c(n4)CCO5)ncc3c2)cs1 (stereo not shown) as well.
Return: 10%

Enquiry: Please do the same for N=S(=O)(c1ccccc1)c1ccc2c(=O)n(Cc3cccc(N)c3)ncc2c1 (stereo not shown) as well.
Return: 103%

Enquiry: Please do the same for COc1ccc(Cn2ncc3cc(S(=O)(=O)c4cc[nH]n4)ccc3c2=O)nc1 as well.
Return: 111%

Enquiry: Please do the same for COc1ccc(Cn2ncc3cc(S(=O)(=O)c4ccc(OC)nc4)ccc3c2=O)cn1 as well.
Return: 97.2%

* * *

molecular target: recombinant human PKM2 (Homo sapiens, UniProt P14618); construct: His (N); purchased R&D Systems; experiment: Human PKM2 activation assay (Kinase-Glo Plus luminescent detection of generated ATP); type: biochemical; conditions: recombinant human PKM2 activation; 4-parameter logistic fit; read-out: hPKM2 EC50
This listing pairs molecules with measured EC50.
Hi! Could you send only the number? It should be in nM, unit omitted.

Enquiry: So what does the record say about EC50 for Cc1c[nH]nc1Cn1ncc2cc(S(=O)(=O)c3cnn(C)c3)ccc2c1=O ?
Return: 196

* * *

target: recombinant human PKM2 (Homo sapiens, UniProt P14618); construct: His (N); purchased R&D Systems; assay: Human PKM2 activation assay (Kinase-Glo Plus luminescent detection of generated ATP); format: biochemical; details: percentage activation normalised to DMSO vehicle (LOW) and 5 μM TEPP-46 (HIGH); read-out: hPKM2 Emax
This listing pairs molecules with measured Emax.

Use these answered entries as a reference point.
>>> measurement("COc1ccc(Cn2ncc3cc(S(=O)(=O)c4cnc5c(c4)OCCO5)ccc3c2=O)cn1")
"57.1%"
>>> measurement("Cc1[nH]nc(Cn2ncc3cc(S(=O)(=O)c4ccn(C)n4)ccc3c2=O)c1Cl")
"95.9%"
>>> measurement("O=c1c2ccc(S(=O)(=O)c3cnn(CCO)c3)cc2cnn1Cc1cc[nH]n1")
"106%"

// moving on: another record for Emax
Enquiry: So what does the record say about Emax for N=[S@](=O)(c1cn[nH]c1)c1ccc2c(=O)n(Cc3ccc4c(n3)CCO4)ncc2c1 (stereo in doubt) ?
Return: 105%

* * *

target: recombinant human PKM2 (Homo sapiens, UniProt P14618); construct: His (N); purchased R&D Systems; test: Human PKM2 activation assay (Kinase-Glo Plus luminescent detection of generated ATP); assay type: biochemical; conditions: percentage activation normalised to DMSO vehicle (LOW) and 5 μM TEPP-46 (HIGH); read-out: hPKM2 Emax
MEASURED PARAMETER: Emax (%)
Hi! Could you send only the number? It should be in %, unit omitted.

>>> measurement("O=c1c2ccc(S(=O)(=O)c3ccccc3)cc2cnn1Cc1ccsc1CO")
86.1

Enquiry: So what does the record say about Emax for COc1ccc(S(=O)(=O)c2ccc3c(=O)n(Cc4c(F)ccnc4O)ncc3c2)cc1 ?
Return: 98.8

Enquiry: Please do the same for Cc1coc2ccc(S(=O)(=O)c3ccc4c(=O)n(Cc5cc[nH]n5)ncc4c3)cc12 as well.
Return: 84.7

Enquiry: Please do the same for CC1Cc2cc(S(=O)(=O)c3ccc4c(=O)n(Cc5ccn(C)n5)ncc4c3)ccc2O1 (stereo not shown) as well.
Return: 107

* * *

This listing pairs compounds with measured pEC50.
biological target: recombinant human PKLR (Homo sapiens, UniProt P30613); construct: His (N); purchased R&D Systems; test: Human PKLR activation assay (Kinase-Glo Plus luminescent detection of generated ATP); type: biochemical; conditions: activation of recombinant human PKLR; 4-parameter logistic fit; read-out: hPKLR EC50
As a rule, pEC50 stands for the negative log10 of the concentration, concentration in M.

Enquiry: So what does the record say about pEC50 for O=c1c2ccc(S(=O)(=O)c3cn[nH]c3)cc2cnn1Cc1cc2n(n1)CCO2 [Example 323] ?
Return: 8.19
